Format: in vivo, Sprague Dawley rats
Conditions: male, Sprague-Dawley, rat, plasma, po, 2 g/kg
Items are presented alongside their recorded Cmax.
Field: numeric (ng/mL). Do not append units.

Molecule	Cmax / ng/mL
CC(C)=CCC[C@](C)(O[C@@H]1O[C@H](CO)[C@@H](O)[C@H](O)[C@H]1O)[C@H]1CC[C@]2(C)[C@@H]1[C@H](O)C[C@@H]1[C@@]3(C)CC[C@H](O[C@@H]4O[C@H](CO)[C@@H](O)[C@H](O)[C@H]4O[C@@H]4O[C@H](CO)[C@@H](O)[C@H](O)[C@H]4O)C(C)(C)[C@@H]3CC[C@]12C [Rd, ginsenoside Rd]	8.5

Now for a further molecule.
Prompt: Name the reported Cmax value associated with the molecule CC(C)=CCC[C@](C)(O[C@@H]1O[C@H](CO[C@@H]2O[C@H](CO)[C@@H](O)[C@H](O)[C@H]2O)[C@@H](O)[C@H](O)[C@H]1O)[C@H]1CC[C@]2(C)[C@@H]1[C@H](O)C[C@@H]1[C@@]3(C)CC[C@H](O[C@@H]4O[C@H](CO)[C@@H](O)[C@H](O)[C@H]4O[C@@H]4O[C@H](CO)[C@@H](O)[C@H](O)[C@H]4O)C(C)(C)[C@@H]3CC[C@]12C [Rb1, ginsenoside Rb1]
Response: 23.9
